Data provenance: patent US20120021972A1

# TARGET_SYSTEM: human GLP-1 receptor (human, UniProt P43220 24-463)
# Sequence (P43220 24-463): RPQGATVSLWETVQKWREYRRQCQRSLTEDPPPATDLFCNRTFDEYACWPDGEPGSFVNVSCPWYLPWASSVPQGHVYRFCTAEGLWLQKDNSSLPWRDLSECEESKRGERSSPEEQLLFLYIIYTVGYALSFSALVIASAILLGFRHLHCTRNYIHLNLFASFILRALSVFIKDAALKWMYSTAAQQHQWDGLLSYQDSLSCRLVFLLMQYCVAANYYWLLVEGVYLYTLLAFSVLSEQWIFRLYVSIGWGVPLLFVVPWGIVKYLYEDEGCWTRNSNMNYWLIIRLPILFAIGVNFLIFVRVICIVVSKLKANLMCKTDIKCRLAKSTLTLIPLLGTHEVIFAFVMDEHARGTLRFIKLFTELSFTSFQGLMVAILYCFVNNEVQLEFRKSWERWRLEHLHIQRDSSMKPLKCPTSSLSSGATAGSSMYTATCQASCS
# METHOD: cell-based or functional assay
Starred links: 1 amine or outer side, 2 acyl side, 3 side chain; linkers in the order of their positions; H or OH if unused. Non-standard residues stand in square brackets, D forms with d. No end group written: not given here. *: point of attachment. ACPP = 2-amino-5-(3-chlorophenyl)pentanoic acid, O=C([C@H](CCCc1cccc(Cl)c1)N[*:1])[*:2]; 2Cl,4OMe‑APPA = 2-amino-5-(2-chloro-4-methoxyphenyl)pentanoic acid; Bip(2'-Et-4'-OMe) = CCc1cc(OC)ccc1-c1ccc(C[C@H](N)C(=O)O)cc1; Leu(5,5,5,5',5',5'-F6) = N[C@@H](CC(C(F)(F)F)C(F)(F)F)C(=O)O; Nva(5-(3,5-Me2Ph)) = Cc1cc(C)cc(CCC[C@H](N)C(=O)O)c1; 2F‑APPA = 2-amino-5-(2-fluorophenyl)pentanoic acid; αMePhe(2-F) = C[C@](N)(Cc1ccccc1F)C(=O)O; Phe(2-F) = N[C@@H](Cc1ccccc1F)C(=O)O; hhPhe = N[C@@H](CCCc1ccccc1)C(=O)O; aThr = C[C@H](O)[C@H](N)C(=O)O; CNB = not defined here; Aib = CC(C)(N)C(=O)O; Moc = COC(=O)*
Please respond with reported cAMP release, % activity, 100 nM for every item in the list.
Quick note: unit goes after the number.

Recorded results for 3 binders are shown here.
[[record]]
binder = "H[Aib][CNB]GTFTSD[Bip(2'-Et-4'-OMe)][2Cl,4OMe‑APPA] (reading uncertain) [Seq. ID. No. 84: H-Aib-(CNB)-GTFTSD-Bip(OMe)-(2Cl,4OMe-APPA)]"
test_readout = "cAMP release, % activity, 100 nM"
value_observed = "85%"

[[record]]
binder = "H[Aib][CNB]G[aThr][αMePhe(2-F)][aThr]SD[Bip(2'-Et-4'-OMe)][hhPhe] (reading uncertain; also: reduced (CH2) bonds between 9-10 and 10-11) [Seq. ID. No. 202: H-Aib-(CNB)-G-T(allo)-(α-Me-2F-Phe)-T(allo)-SD-(CH2)-Bip(OMe)-(CH2)-(APPA)]"
test_readout = "cAMP release, % activity, 100 nM"
value_observed = "99%"

[[record]]
binder = "Ac-H[Aib][Leu(5,5,5,5',5',5'-F6)]GT[αMePhe(2-F)]TSD[Bip(2'-Et-4'-OMe)][hhPhe] [Seq. ID. No. 210: CH3CO-H-Aib-(Hfl)-GT-(α-Me-2F-Phe)-TSD-Bip(OMe)-(APPA)]"
test_readout = "cAMP release, % activity, 100 nM"
value_observed = "90%"


Please supply cAMP release, % activity, 100 nM for each of the following items, keeping them in order.
1. H[Aib]QGT[Phe(2-F)]TSD[Bip(2'-Et-4'-OMe)][Nva(5-(3,5-Me2Ph))] [Seq. ID. No. 42: H-Aib-QGT-(2F-Phe)-TSD-Bip(OMe)-(ADMP)]
2. H[Aib][Leu(5,5,5,5',5',5'-F6)]GT[αMePhe(2-F)]TSD[Bip(2'-Et-4'-OMe)][Nva(5-(3,5-Me2Ph))] [Seq. ID. No. 235: H-Aib-(Hfl)-GT-(α-Me-2F-Phe)-TSD-Bip(OMe)-(ADMP)]

Data returned:
["89%", "99%"]

Please supply cAMP release, % activity, 100 nM for each of the following items, keeping them in order.
1. Moc-H[Aib]QG[aThr][αMePhe(2-F)][aThr]SD[Bip(2'-Et-4'-OMe)][2F‑APPA] (also: reduced (CH2) bonds between 9-10 and 10-11) [Seq. ID. No. 200: CH3OCO-H-Aib-QG-T(allo)-(α-Me-2F-Phe)-T(allo)-SD-(CH2)-Bip(OMe)-(CH2)-(2F-APPA)]
2. H[Aib]QGT[αMePhe(2-F)]TSD[Bip(2'-Et-4'-OMe)][ACPP] [Seq. ID. No. 39: H-Aib-QGT-(α-Me-2F-Phe)-TSD-Bip(OMe)-(ACPP)]

Data returned:
1. 92%
2. 87%
